Overview of recorded melting point for various compounds
property_measured: melting point

1. O=C(CCc1cnoc1-c1ccccc1)Nc1ccc(CP(=O)(O)O)cc1
162 to 164 °C
2. Cc1ccc(-c2oncc2CCC(=O)O)cc1
121 to 122 °C
3. COc1ccc(-c2oncc2CCC(=O)O)cc1
101 to 102 °C
4. CCNC(=O)/C=C/c1cnoc1-c1ccccc1
156 to 157 °C
5. CSc1ccc(-c2oncc2CCCO)cc1
54 to 55 °C
6. O=C(O)/C=C/c1cnoc1-c1ccccc1
197 to 199 °C
7. O=C(O)CCc1cnoc1-c1cc(Cl)cc(Cl)c1
143 to 144 °C
8. O=C(O)CCc1conc1-c1ccc(Cl)c(F)c1
148 to 149 °C
9. Cc1onc(-c2ccc(C(F)(F)F)cc2)c1CCC(=O)O
138 to 139 °C
10. O=C(O)CCc1cnoc1-c1ccc(Cl)c(Cl)c1
171 to 172 °C

Data origin, for the record: patent US7022725B2
